Values compiled from the supplement of paper PMC11451515.

Please go through the items and note down their AUC of viability dose-response curve.
- System: NOMO1
- assay_notes: AUC of viability dose-response curve (% viability x log10 dose units); higher = less sensitive
- condition_summary: RPMI 5 mM glucose + 10% FBS; 48 h
Enter the number alone.

Ask: What does the record list as AUC of viability dose-response curve for C[S+](=O)([O-])c1cccc(CNc2nc(Nc3ccc4c(c3)CCC(=O)N4)ncc2C(F)(F)F)c1 ?
Result: 446

Ask: What does the record list as AUC of viability dose-response curve for CNCc1ccc(-c2[nH]c3cc(F)cc4c3c2CCNC4=O)cc1 ?
Result: 466

Ask: What does the record list as AUC of viability dose-response curve for CN[C@@H](C)C(=O)N[C@H]1CN(C(=O)CC(C)C)CC[C@H]2CC[C@@H](C(=O)NC(c3ccccc3)c3ccccc3)N2C1=O ?
Result: 336

Ask: What does the record list as AUC of viability dose-response curve for CN(C)CCCN1c2ccccc2CCc2ccc(Cl)cc21 ?
Result: 448

Ask: What does the record list as AUC of viability dose-response curve for CC(O)(C#Cc1ccc2c(c1)N(c1nc(N)ncc1Cl)CC2)c1nccs1 (stereo unspecified) ?
Result: 467

Ask: What does the record list as AUC of viability dose-response curve for OC(=O)C(CC/1=C/C(=O)NC2=CC=CC=C12)NC(=O)C3=CC=C(Cl)C=C3 (stereo unspecified) ?
Result: 454

Ask: What does the record list as AUC of viability dose-response curve for Cc1cc(C(=O)N2CCN(c3cccc(Cl)c3)CC2)n(-c2ccccc2)n1 ?
Result: 389

Ask: What does the record list as AUC of viability dose-response curve for C/C(O)=C(\C#N)C(=O)Nc1cc(Br)ccc1Br ?
Result: 439

Ask: What does the record list as AUC of viability dose-response curve for CC1=C(CC(=O)O)c2cc(F)ccc2/C1=C\c1ccc([S+](C)[O-])cc1 (stereo unspecified) ?
Result: 453

Ask: What does the record list as AUC of viability dose-response curve for CCN(C(=O)C/1=C(O)/C2=C(C=CC=C2Cl)N(C)C1=O)C3=CC=CC=C3 ?
Result: 306

Ask: What does the record list as AUC of viability dose-response curve for O=C\1N(N\C=C1[N]2C=CN=N2)C3=NC=NC(=C3)N4CCOCC4 ?
Result: 210

Ask: What does the record list as AUC of viability dose-response curve for CCC(=O)N[C@H]1CC[C@H](C(=O)N(C)c2ccc(-c3nc4ccccc4o3)cc2)C1 ?
Result: 449

Ask: What does the record list as AUC of viability dose-response curve for CC[C@@H]1/C=C(\C)C[C@H](C)C[C@H](OC)[C@H]2O[C@@](O)(C(=O)C(=O)N3CCCC[C@H]3C(=O)O[C@H](/C(C)=C/[C@@H]3CC[C@H](Cl)[C@H](OC)C3)[C@H](C)[C@@H](O)CC1=O)[C@H](C)C[C@@H]2OC ?
Result: 466

Ask: What does the record list as AUC of viability dose-response curve for COc1ccc2c(c1)c(CC(=O)O)c(C)n2C(=O)c1ccc(Cl)cc1 ?
Result: 473

Ask: What does the record list as AUC of viability dose-response curve for CC(C)c1cc(C(=O)N2Cc3ccc(CN4CCN(C)CC4)cc3C2)c(O)cc1O ?
Result: 317

Ask: What does the record list as AUC of viability dose-response curve for CC[C@H](NC(=O)[C@H](C)NC)C(=O)N1C[C@@H](O)C[C@H]1Cc1c(-c2[nH]c3cc(F)ccc3c2C[C@@H]2C[C@H](O)CN2C(=O)[C@H](CC)NC(=O)[C@H](C)NC)[nH]c2cc(F)ccc12 ?
Result: 323
